assay: Average particle size of the LNP encapsulating nucleic acid (Zetasizer Nano ZS); format: physicochemical; conditions: LNP encapsulating siRNA 2 (Table 13)
testReadout: Particle size (nm)

- molecule: "CCCCCC(CCCCC)CCOC(=O)CCCCCCCC(CCCCCCCC(=O)OCCC(CCCCC)CCCCC)OC(=O)OCCOC1CCN(C)CC1"
  unitsSymbol: "nm"
  Particle size (nm): 65.6
- molecule: "CCCCCC(CCCCC)CCOC(=O)CCCCCCCC(CCCCCCCC(=O)OCCC(CCCCC)CCCCC)C(=O)OCCOC1CCN(C)CC1"
  unitsSymbol: "nm"
  Particle size (nm): 87.9
- molecule: "CCCCCCCC(CCCCCCC)OC(=O)CCCCCCCC(CCCCCCCC(=O)OCCC(CCCCC)CCCCC)OC(=O)COC1CCN(C)CC1 (racemic)"
  unitsSymbol: "nm"
  Particle size (nm): 119
- molecule: "CCCCCC(CCCCC)CCOC(=O)CCCCCCCC(CCCCCCCC(=O)OCCC(CCCCC)CCCCC)OC(=O)CO[C@H]1C[C@H](N(C)C)C1"
  unitsSymbol: "nm"
  Particle size (nm): 86.8
- molecule: "CCCCCC(CCCCC)CCOC(=O)CCCCCCCC(CCCCCCCC(=O)OCCC(CCCCC)CCCCC)OC(=O)CO[C@H]1CC[C@H](N(C)C)CC1"
  unitsSymbol: "nm"
  Particle size (nm): 80.5
- molecule: "CCCCCC(CCCCC)CCOC(=O)CCCCCCCC(CCCCCCCC(=O)OCCC(CCCCC)CCCCC)OC(=O)COC1CC2CC1N(C)C2 (racemic)"
  unitsSymbol: "nm"
  Particle size (nm): 74.6
- molecule: "CCCCCC(CCCCC)CCOC(=O)OCCCCCCCCC(CCCCCCCCOC(=O)OCCC(CCCCC)CCCCC)OC(=O)COC1CCN(C)CC1"
  unitsSymbol: "nm"
  Particle size (nm): 76.3
- molecule: "CCCCCC(CCCCC)CCOC(=O)CCCCCCCC(CCCCCCCC(=O)OCCC(CCCCC)CCCCC)C(=O)N(C)CCOC1CCN(C)CC1"
  unitsSymbol: "nm"
  Particle size (nm): 74.5
- molecule: "CCCCCC(CCCCC)CCOC(=O)CCCCCCCC(CCCCCCCC(=O)OCCC(CCCCC)CCCCC)OC(=O)CO[C@H]1CC[C@@H](N(C)C)CC1"
  unitsSymbol: "nm"
  Particle size (nm): 69.2
- molecule: "CCCCCC(CCCCC)CCOC(=O)CCCCCCCC(CCCCCCCC(=O)OCCC(CCCCC)CCCCC)OC(=O)COC1CN(C)C1"
  unitsSymbol: "nm"
  Particle size (nm): 82.9
- molecule: "CCCCCC(CCCCC)CCOC(=O)CCCCCCCC(CCCCCCCC(=O)OCCC(CCCCC)CCCCC)OC(=O)C1CCC2(CCN(C)CC2)O1 (racemic)"
  unitsSymbol: "nm"
  Particle size (nm): 92.9
- molecule: "CCCCCC(CCCCC)CCOC(=O)CCCCCCCC(CCCCCCCC(=O)OCCC(CCCCC)CCCCC)OC(=O)COCCN(C)C"
  unitsSymbol: "nm"
  Particle size (nm): 82.9
- molecule: "CCCCCC(CCCCC)CCOC(=O)CCCCCCCC(CCCCCCCC(=O)OCCC(CCCCC)CCCCC)OC(=O)CO[C@@H]1CCC[C@@H](N(C)C)C1 (racemic)"
  unitsSymbol: "nm"
  Particle size (nm): 89.5
